Value source: PubChem BioAssay

Measured activity accompanies every entry in the list below.
- system.tested: Tumor necrosis factor receptor superfamily member 10B (Homo sapiens) (UniProt O14763)
- Sequence (O14763 whole entry, looked up): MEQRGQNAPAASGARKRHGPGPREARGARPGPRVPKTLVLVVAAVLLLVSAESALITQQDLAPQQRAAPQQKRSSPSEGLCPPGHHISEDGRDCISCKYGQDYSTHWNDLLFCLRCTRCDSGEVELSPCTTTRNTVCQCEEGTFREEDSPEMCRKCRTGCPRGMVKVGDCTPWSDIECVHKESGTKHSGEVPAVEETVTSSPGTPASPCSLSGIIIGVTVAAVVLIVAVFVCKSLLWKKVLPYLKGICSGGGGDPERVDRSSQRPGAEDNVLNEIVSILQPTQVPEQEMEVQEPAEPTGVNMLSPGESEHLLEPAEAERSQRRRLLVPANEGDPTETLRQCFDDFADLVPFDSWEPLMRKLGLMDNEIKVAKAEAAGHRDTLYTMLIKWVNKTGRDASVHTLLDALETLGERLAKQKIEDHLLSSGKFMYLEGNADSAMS
- protocol.details: caspase-8 TRAIL sensitization, hit retest, confirmation, cell-based, NB7+caspase-8, with/without TRAIL, luminescence panel (AID 651596)
- settings: NB7 neuroblastoma + caspase-8, TRAIL sensitization, luminescence viability, with TRAIL, mean of runs, at 10 µM, stronger effect = higher value
assay.readout: activity (%)

molecule=CCOC(=O)c1ccc(N/C=C/C(=O)c2ccco2)cc1 assay_readout=activity val=52.7
molecule=CCC(=O)c1ccc(OCC(=O)OCC(=O)N2CCCc3ccccc32)cc1 assay_readout=activity val=-9.15
molecule=Cc1cccc(C(=O)Nc2ccc(C(=O)Nc3ccc(O)cc3)cc2)c1 assay_readout=activity val=79.9
molecule=Cc1ccc2nc(-c3ccc(NC(=O)COC(=O)c4ccc(Br)o4)cc3)sc2c1 assay_readout=activity val=62
molecule=CC(=O)CSc1ccc(-c2nc3ccccc3[nH]2)cn1 assay_readout=activity val=92.1
molecule=COc1cccc2sc(N(C)c3ccccc3)nc12 assay_readout=activity val=58.3
molecule=C/C(=N\NC(=O)c1ccccc1NC(=O)c1ccc(Cl)cc1)c1ccncc1 assay_readout=activity val=99.1
molecule="CC(OC(=O)c1ccc(S(C)(=O)=O)c([N+](=O)[O-])c1)C(=O)NC1C2CC3CC(C2)CC1C3 (stereo unspecified)" assay_readout=activity val=77.8
molecule=COc1ccc2oc(=Nc3ccccc3)c(-c3nc4ccccc4[nH]3)cc2c1 assay_readout=activity val=52.8
molecule=COc1cc2c3nnc(-c4ccc(F)cc4)c-3cn(Cc3ccccc3)c2cc1OC assay_readout=activity val=40.5
molecule=COc1cc2sc3ccc(-c4ccc(CN5CCOCC5)cc4)cc3c(=O)c2cc1OC assay_readout=activity val=46.9
molecule=O=C(N/N=C/C(Cl)=C/c1ccccc1)c1ccccn1 assay_readout=activity val=61.2
molecule=O=C(NC1CC1)C1CCN(S(=O)(=O)c2ccc(Cl)c([N+](=O)[O-])c2)CC1 assay_readout=activity val=65.2
molecule=Cc1ccc2c(c1)-c1nc3ccccc3cc1C2=NC1CCCCC1 assay_readout=activity val=49.6
molecule=Oc1ccccc1C=Nc1ccccc1-c1nc2ccccc2[nH]1 assay_readout=activity val=7.4
molecule="CCCCCCCCCCCC1N=C(N)NC(CCCO)=C1C(=O)OC (stereo unspecified)" assay_readout=activity val=16.3
molecule=Cc1ccc(NC(=O)c2ccccc2)s1 assay_readout=activity val=40.7
molecule=Cc1ccc2cc(NC(=O)c3cccc(F)c3)ccc2n1 assay_readout=activity val=21.3
molecule=CC1(C)N=C(N)N=C(N)N1c1ccc(OCC(=O)Nc2ccccc2)c(Cl)c1 assay_readout=activity val=78.5
molecule=Cc1cc(C(=O)COC(=O)c2n[nH]c3ccccc23)c(C)n1C assay_readout=activity val=62.2
molecule=Cc1cccc(NC(=O)/C=C/c2ccc3c(c2)OCO3)n1 assay_readout=activity val=80.4
molecule=CC1CCN(c2ccc(-c3cccc(NC(=O)C(F)(F)F)c3)nn2)CC1 assay_readout=activity val=97.5
molecule="Fc1cccc(C2NN=C(c3ccccc3)S2)c1 (stereo unspecified)" assay_readout=activity val=58.6
molecule=COC(=O)c1c(NC(=O)c2ccc([N+](=O)[O-])o2)sc2c1CCN(C(C)C)C2 assay_readout=activity val=46.9
molecule=Cc1ccc(Nc2nc(N)c3ccccc3n2)cc1C assay_readout=activity val=83
molecule=Cc1onc(C(=O)N2CCC(Cc3ccccc3)CC2)c1[N+](=O)[O-] assay_readout=activity val=97.8
molecule=CCCn1c(C)cc(C(=O)COC(=O)c2ccc[nH]c2=O)c1C assay_readout=activity val=49
molecule=Cc1ccccc1-c1nc2sc3c(c2c(=O)n1N)CCCC3 assay_readout=activity val=44
molecule=Nc1nc(=S)c2ncn([C@@H]3O[C@H](CO)[C@@H](O)[C@H]3O)c2[nH]1 assay_readout=activity val=70.6
molecule=CC(C)(C)c1ccc(C(=O)Nc2cnccn2)cc1 assay_readout=activity val=78.5
molecule=COC(=O)CSc1ncnc2c1sc1nc3c(cc12)COC(C)(C)C3 assay_readout=activity val=82.5
molecule=O=C(NCCc1ccccc1F)c1ccc2c(c1)OCCO2 assay_readout=activity val=90.4
molecule=CCOc1ccc(NC(=O)Nc2cccs2)cc1 assay_readout=activity val=63.8
molecule=CC(C)(C)C(=O)Nc1cccc(-c2nc3ccccc3c(=O)o2)c1 assay_readout=activity val=59.2
molecule=CN(C)c1cccc(C(=O)N/N=C/c2ccsc2)c1 assay_readout=activity val=65
molecule="COc1ccc(C(C(=O)NC2CCCCC2)N(C(=O)CCl)c2ccccc2Cl)cc1 (stereo unspecified)" assay_readout=activity val=98.8
molecule=O=C(Nc1ccccc1C(=O)N/N=C/c1ccncc1)c1ccccc1 assay_readout=activity val=91.7
molecule=O=S1(=O)CC(c2ccccc2)=NN=C(c2ccccc2)C1 assay_readout=activity val=79
molecule=Cc1ccc(/C=N/Nc2nnc(Cl)c3ccccc23)cc1 assay_readout=activity val=82.6
molecule=O=C(Nc1ccc(-c2cn3ccsc3n2)cc1)C1CC1 assay_readout=activity val=75.1
molecule=COc1ccc(/C=C/c2cc(-c3ccc(C)cc3)o[n+]2C)cc1 assay_readout=activity val=81.8
molecule=CCC(=O)N1CCCc2cc(S(=O)(=O)N3CCN(c4ccccc4F)CC3)ccc21 assay_readout=activity val=17.2
molecule=CCOc1ccc(C(=O)Nc2cc(C)c3c(=O)oc4ccccc4c3n2)cc1 assay_readout=activity val=61.2
molecule=Nc1nc(CCl)nc(Nc2ccc3ccccc3c2)n1 assay_readout=activity val=99.1
molecule=COC(=O)c1ccccc1NC(=O)c1cc(-c2ccc(O)cc2)on1 assay_readout=activity val=15.1
molecule=O=C(CCl)Nc1ccccc1Sc1ccccc1 assay_readout=activity val=83.2
